All figures here come from patent US20260347373A1.

target: KRAS G12D (Homo sapiens, UniProt P01116, G12D); assay: KRAS G12D Probe Displacement Assay (TR-FRET, GDP-loaded); format: binding; conditions: KRAS G12D, read-out: KRAS^G12D Probe Displacement Assay IC50
Sequence (P01116 1-188 isoform P01116-2 G12D): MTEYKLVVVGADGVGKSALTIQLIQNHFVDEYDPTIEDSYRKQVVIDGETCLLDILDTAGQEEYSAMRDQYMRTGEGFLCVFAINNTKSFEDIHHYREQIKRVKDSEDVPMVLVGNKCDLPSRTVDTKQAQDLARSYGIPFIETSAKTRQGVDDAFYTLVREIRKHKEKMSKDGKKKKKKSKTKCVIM
pIC50: −log10 of the molar value.
REPORTED METRIC: pIC50

COMPOUND	RESULT
Cc1cc(N)cc(-c2nc3c4c(nc(OCC5(CN6CCSCC6)CC5)nc4c2F)N2C[C@H]4CC[C@H](N4)[C@H]2CCO3)c1C(F)(F)F [Example 159]	> 9.52
Cc1cc(N)cc(-c2nc3c4c(nc(O[C@@H](C)[C@@H]5CC6(CC6)CN5C)nc4c2F)N2C[C@H]4CC[C@H](N4)[C@H]2CCO3)c1C(F)(F)F [Example 143]	> 9.52
Cc1cc(N)cc(-c2nc3c4c(nc(OC[C@H]5COC[C@H]5N(C)C)nc4c2F)N2C[C@H]4CC[C@H](N4)[C@H]2CCO3)c1C(F)(F)F [Example 41]	8.52 to 9.52
CCN1C[C@H](F)C[C@H]1[C@H](C)Oc1nc2c3c(nc(-c4cc(N)cc(C)c4C(F)(F)F)c(F)c3n1)OCC[C@@H]1[C@@H]3CC[C@H](CN21)N3 [Example 222]	> 9.52
[2H]C([2H])([2H])N1CCC(C(F)F)C(C)(C([2H])([2H])Oc2nc3c4c(nc(-c5cc(N)cc(C)c5C(F)(F)F)c(F)c4n2)OCC[C@@H]2[C@@H]4CC[C@H](CN32)N4)C1 (single isomer, unassigned) [Example 241]	> 9.52
C[C@H](Oc1nc2c3c(nc(-c4cc(N)cc(Cl)c4C(F)(F)F)c(F)c3n1)OCC[C@@H]1[C@@H]3CC[C@H](CN21)N3)[C@@H]1CCCN1C [Example 140]	> 9.52
[2H]C([2H])([2H])N1C[C@H](OC)C[C@H]1[C@H](C)Oc1nc2c3c(nc(-c4cc(N)cc(C)c4C(F)(F)F)c(F)c3n1)OCC[C@@H]1[C@@H]3CC[C@H](CN21)N3 [Example 219]	> 9.52
Cc1cc(N)cc(-c2nc3c4c(nc(OCC5(CN6CCC(O)(C(F)(F)F)CC6)CC5)nc4c2F)N2C[C@H]4CC[C@H](N4)[C@H]2CCO3)c1C(F)(F)F [Example 114]	> 9.52
COC1CN(CC2(COc3nc4c5c(nc(-c6cc(N)cc(C)c6C(F)(F)F)c(F)c5n3)OCC[C@@H]3[C@@H]5CC[C@H](CN43)N5)CC2)C1 [Example 83]	> 9.52
Cc1cc(N)cc(-c2nc3c4c(nc(OC[C@@]5(C)CCCN(C6CCOCC6)C5)nc4c2F)N2C[C@H]4CC[C@H](N4)[C@H]2CCO3)c1C(F)(F)F [Example 195]	> 9.52
Cc1cc(N)cc(-c2nc3c4c(nc(OCC5(CN6CC(C(F)(F)F)C6)CC5)nc4c2F)N2C[C@H]4CC[C@H](N4)[C@H]2CCO3)c1C(F)(F)F [Example 79]	> 9.52
[2H]C([2H])([2H])N1C[C@H](F)C[C@H]1[C@H](C)Oc1nc2c3c(nc(-c4cc(N)cc(C)c4C(F)(F)F)c(F)c3n1)OCC[C@@H]1[C@@H]3CC[C@H](CN21)N3 [Example 221]	> 9.52
Cc1cc(N)cc(-c2nc3c4c(nc(OCC5(C)CC(F)CN(C6CCOCC6)C5)nc4c2F)N2C[C@H]4CC[C@H](N4)[C@H]2CCO3)c1C(F)(F)F (single isomer, unassigned) [Example 232]	> 9.52
Cc1cc(N)cc(-c2nc3c4c(nc(OCC5(CN6CCOC7(CCC7)C6)CC5)nc4c2F)N2C[C@H]4CC[C@H](N4)[C@H]2CCO3)c1C(F)(F)F [Example 121]	> 9.52
[2H]C([2H])([2H])N1CC[C@H](OC)[C@H]1[C@H](C)Oc1nc2c3c(nc(-c4cc(N)cc(Cl)c4C(F)(F)F)c(F)c3n1)OCC[C@@H]1[C@@H]3CC[C@H](CN21)N3 [Example 218]	> 9.52
Cc1cc(N)cc(-c2nc3c4c(nc(OCC5(CN6CC(C)OC(C)C6)CC5(F)F)nc4c2F)N2C[C@H]4CC[C@H](N4)[C@H]2CCO3)c1C(F)(F)F (single isomer, unassigned) [Example 24]	8.52 to 9.52
Cc1cc(N)cc(-c2nc3c4c(nc(OCC5(CN6CCn7cncc7C6)CC5)nc4c2F)N2C[C@H]4CC[C@H](N4)[C@H]2CCO3)c1C(F)(F)F [Example 108]	8.52 to 9.52
Cc1cc(N)cc(-c2nc3c4c(nc(OCC5(CN6CCC7(CCOC7)C6)CC5)nc4c2F)N2C[C@H]4CC[C@H](N4)[C@H]2CCO3)c1C(F)(F)F (some centres unmarked) [Example 188]	> 9.52
CO[C@H]1CCN(C)[C@@H]1C(C)Oc1nc2c3c(nc(-c4cc(N)cc(C)c4C(F)(F)F)c(F)c3n1)OCC[C@@H]1[C@@H]3CC[C@H](CN21)N3 (single isomer, unassigned) [Example 75]	> 9.52
[2H]C([2H])([2H])N1CC/C(=C\F)C(C)(C([2H])([2H])Oc2nc3c4c(nc(-c5cc(N)cc(C)c5C(F)(F)F)c(F)c4n2)OCC[C@@H]2[C@@H]4CC[C@H](CN32)N4)C1 (single isomer, unassigned) [Example 242]	> 9.52

----------
Target: WT KRAS (Homo sapiens, UniProt P01116)
Sequence (P01116 1-188 isoform P01116-2): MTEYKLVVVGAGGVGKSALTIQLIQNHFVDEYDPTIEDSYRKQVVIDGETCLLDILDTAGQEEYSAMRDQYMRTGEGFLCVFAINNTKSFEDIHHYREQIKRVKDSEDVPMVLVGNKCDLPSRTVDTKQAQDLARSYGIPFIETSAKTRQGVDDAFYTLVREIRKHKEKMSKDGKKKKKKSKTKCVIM
Assay: KRAS WT Probe Displacement Assay (TR-FRET, GDP-loaded)
Format: binding
Conditions: KRAS WT, read-out: KRAS^WT Probe Displacement Assay IC50
Description: The synthetic routes of probe 1 and 2, which have been disclosed in PCT/CN2022/070676, are hereby incorporated herein.

COMPOUND	TARGET SYSTEM	IC50
Cc1cc(N)cc(-c2nc3c4c(nc(OCC5(CN6C[C@H]7C[C@H]7[C@@H]6CO)CC5)nc4c2F)N2C[C@H]4CC[C@H](N4)[C@H]2CCO3)c1C(F)(F)F	WT KRAS (Homo sapiens, UniProt P01116)	3 to 1000 nM
COC1CN(CC2(COc3nc4c5c(nc(-c6cc(N)cc(C)c6C(F)(F)F)c(F)c5n3)OCC[C@@H]3[C@@H]5CC[C@H](CN43)N5)CC2)CC1F (single isomer, unassigned)	WT KRAS (Homo sapiens, UniProt P01116)	3 to 1000 nM
Cc1cc(N)cc(-c2nc3c4c(nc(OCC5(CN6CCOC7(CC7)C6)CC5)nc4c2F)N2C[C@H]4CC[C@H](N4)[C@H]2CCO3)c1C(F)(F)F	WT KRAS (Homo sapiens, UniProt P01116)	0.3 to 3 nM
Cc1cc(N)cc(-c2nc3c4c(nc(OCC5(CN6CCC=C(F)C6)CC5)nc4c2F)N2C[C@H]4CC[C@H](N4)[C@H]2CCO3)c1C(F)(F)F	WT KRAS (Homo sapiens, UniProt P01116)	3 to 1000 nM
Cc1cc(N)cc(-c2nc3c4c(nc(OC[C@]56C[C@H](F)CN5C[C@H](F)C6)nc4c2F)N2C[C@H]4CC[C@H](N4)[C@H]2CCO3)c1C(F)(F)F	WT KRAS (Homo sapiens, UniProt P01116)	3 to 1000 nM
Cc1nc(N)cc(-c2nc3c4c(nc(OCC5(CN6CCC(=C(F)F)CC6)CC5)nc4c2F)N2C[C@H]4CC[C@H](N4)[C@H]2CCO3)c1C(F)(F)F	WT KRAS (Homo sapiens, UniProt P01116)	3 to 1000 nM

----------
target: WT KRAS (Homo sapiens, UniProt P01116); test: KRAS WT Probe Displacement Assay (TR-FRET, GDP-loaded); type: binding; details: KRAS WT, read-out: KRAS^WT Probe Displacement Assay IC50
pIC50: −log10 of the molar value.
# pIC50 per record follows
REPORTED METRIC: pIC50

COMPOUND	RESULT
Cc1cc(N)cc(-c2nc3c4c(nc(OCC5(C)CN(C)CC/C5=C\F)nc4c2F)N2C[C@H]4CC[C@H](N4)[C@H]2CCO3)c1C(F)(F)F (single isomer, unassigned) [Example 237]	8.52 to 9.52
[2H]C([2H])([2H])N1CC[C@H](OC)[C@H]1[C@H](C)Oc1nc2c3c(nc(-c4cc(N)cc(C)c4C(F)(F)F)c(F)c3n1)OCC[C@@H]1[C@@H]3CC[C@H](CN21)N3	6.00 to 8.52
Cc1cc(N)cc(-c2nc3c4c(nc(OCC5(C)CC(F)CN(C6CCOCC6)C5)nc4c2F)N2C[C@H]4CC[C@H](N4)[C@H]2CCO3)c1C(F)(F)F (single isomer, unassigned) [Example 234]	6.00 to 8.52
Cc1cc(N)cc(-c2nc3c4c(nc(OCC5(CN6CCN(C7CC7)CC6)CC5)nc4c2F)N2C[C@H]4CC[C@H](N4)[C@H]2CCO3)c1C(F)(F)F	8.52 to 9.52
Cc1cc(N)cc(-c2nc3c4c(nc(OCC5(CN6CCC[C@H]6C)CC5)nc4c2F)N2C[C@H]4CC[C@H](N4)[C@H]2CCO3)c1C(F)(F)F	6.00 to 8.52
